System: Physalospora piricola
Test: Fungicidal activity, fungi growth rate method, PP
Assay type: cell-based
Conditions: 50 μg/mL; read-out: Fungicidal activity, inhibition, PP
inhibition at 50 µg/mL below 7% gives F; inhibition at 50 µg/mL at or above it gives T.

Task item: Would you say O=C(NC1CC1)/C(=C/c1ccccc1)NC(=O)c1ccccc1 shows inhibition at 50 µg/mL at minimum 7%?
Reply: F

Task item: Form field: inhibition at 50 µg/mL at least 7%? Entry: COc1ccc(/C=C(\NC(=O)c2ccccc2)C(=O)N2CCC(O)(c3ccc(Br)cc3)CC2)cc1
Reply: F

Task item: Does inhibition at 50 µg/mL meet or surpass 7% for O=C(N/C(=C\c1ccc(Cl)cc1)C(=O)N1CCC(O)(c2ccc(Br)cc2)CC1)c1ccccc1 ?
Reply: T

Task item: Tell me whether inhibition at 50 µg/mL is at least 7% here: O=C(N/C(=C\c1ccco1)C(=O)N1CCC(O)(c2ccc(Br)cc2)CC1)c1ccccc1
Reply: T

Task item: State whether the measured inhibition at 50 µg/mL reaches 7%, counting equality as reaching it, for O=C(N/C(=C\c1ccccc1)C(=O)N1CCC(O)(c2ccc(Br)cc2)CC1)c1cccc([N+](=O)[O-])c1
Reply: T

Task item: Would you say Cc1nnsc1/C=C(\NC(=O)c1ccccc1)C(=O)N1CCC(O)(c2ccc(Br)cc2)CC1 shows inhibition at 50 µg/mL at minimum 7%?
Reply: T

Task item: Confirm if inhibition at 50 µg/mL reported for the compound CC(C)(C)OC(=O)N1CCC(c2nc(/C=C(\NC(=O)c3ccccc3)C(=O)NCC(F)F)cs2)CC1 is 7% or above.
Reply: T

Task item: Does Cc1nnsc1/C=C(\NC(=O)c1ccccc1)C(=O)O have a reported inhibition at 50 µg/mL of at least 7%?
Reply: F

Task item: In plain terms: is recorded inhibition at 50 µg/mL at least 7% for Cc1snnc1/C=C(\NC(=O)c1ccccc1)C(=O)O ?
Reply: F

Task item: Check this compound for inhibition at 50 µg/mL at or above 7%: O=C(N/C(=C\c1ccccc1)C(=O)N1CCC(O)(c2ccc(Br)cc2)CC1)C1CC1
Reply: T

Task item: Check if inhibition at 50 µg/mL >= 7% (inclusive). Item: O=C(NCc1ccc(F)cc1)/C(=C/c1ccccc1)NC(=O)c1ccccc1
Reply: T

Task item: Confirm if inhibition at 50 µg/mL reported for the compound CC(C)(C)OC(=O)N1CCC(c2nc(C(=O)NCC(=O)O)cs2)CC1 is 7% or above.
Reply: F

Task item: API: above_or_equal(metric=inhibition at 50 µg/mL, cutoff=7%) for item O=C(NC(Cc1ccccc1)C(=O)N1CCC(O)(c2ccc(Br)cc2)CC1)C1CCCCC1 (centres unmarked)
Reply: T

Task item: Determine whether this compound has inhibition at 50 µg/mL no lower than 7%: O=C(N/C(=C\c1ccc([N+](=O)[O-])cc1)C(=O)N1CCC(O)(c2ccc(Br)cc2)CC1)c1ccccc1
Reply: T

----------
Tested on: Physalospora piricola
Experiment: Fungicidal activity, fungi growth rate method, PP
Format: cell-based
Details: 50 μg/mL; read-out: Fungicidal activity, inhibition, PP
Give measured inhibition at 50 µg/mL for each item. Keep answers brief.
Answer in %, number only, no unit symbol.

Task item: Which inhibition at 50 µg/mL is reported with Physalospora piricola for this entry: O=C(N/C(=C\c1cccc(C(F)(F)F)c1)C(=O)N1CCC(O)(c2ccc(Br)cc2)CC1)c1ccccc1 ?
Reply: 8

Task item: Lab note: need inhibition at 50 µg/mL with Physalospora piricola for entry CONC(=O)/C(=C/c1ccccc1)NC(=O)c1ccccc1 , please look it up.
Reply: 3

Task item: Provide value of inhibition at 50 µg/mL for this record tested with Physalospora piricola: COc1ccc(C(=O)N/C(=C\c2ccccc2)C(=O)N2CCC(O)(c3ccc(Br)cc3)CC2)cc1
Reply: 7

Task item: Request body: readout inhibition at 50 µg/mL, system Physalospora piricola, query Cc1nnsc1/C=C1\N=C(c2ccccc2)OC1=O . Return the value.
Reply: 6

Task item: Given the entry O=C(N/C(=C\c1cccs1)C(=O)N1CCC(O)(c2ccc(Br)cc2)CC1)c1ccccc1 , what inhibition at 50 µg/mL was observed with Physalospora piricola?
Reply: 10

Task item: inhibition at 50 µg/mL of CC(C)(C)OC(=O)N1CCC(c2nc(/C=C3\N=C(c4ccccc4)OC3=O)cs2)CC1 on Physalospora piricola?
Reply: 19

Task item: Test system Physalospora piricola; read-out inhibition at 50 µg/mL; what value for O=C(N/C(=C\c1ccccc1)C(=O)N1CCC(O)(c2ccc(Br)cc2)CC1)c1ccc(F)cc1 ?
Reply: 49

Task item: Form field: inhibition at 50 µg/mL recorded for CC(C)(C)OC(=O)N1CCC(c2nc(/C=C(\NC(=O)c3ccccc3)C(=O)NCc3ccc(Br)cc3)cs2)CC1 with Physalospora piricola (enter value)
Reply: 22

Task item: // fetch Physalospora piricola inhibition at 50 µg/mL for O=C(NCc1ccc(C(F)(F)F)cc1)/C(=C/c1ccccc1)NC(=O)c1ccccc1
Reply: 0

Task item: Recorded inhibition at 50 µg/mL for COC(=O)[C@H]1CCCN1C(=O)/C(=C/c1ccccc1)NC(=O)c1ccccc1 with Physalospora piricola, please?
Reply: 0

Task item: What measured inhibition at 50 µg/mL is associated with Cc1snnc1/C=C1\N=C(c2ccccc2)OC1=O on Physalospora piricola?
Reply: 15

Task item: // fetch Physalospora piricola inhibition at 50 µg/mL for COC(=O)CCCNC(=O)/C(=C/c1ccccc1)NC(=O)c1ccccc1
Reply: 0

Task item: Please state recorded inhibition at 50 µg/mL (tested on Physalospora piricola) of O=C(N/C(=C\c1ccc(F)cc1)C(=O)N1CCC(O)(c2ccc(Br)cc2)CC1)c1ccccc1
Reply: 3

Task item: Please tell me: inhibition at 50 µg/mL of O=C(NC(Cc1ccccc1)C(=O)N1CCC(O)(c2ccc(Br)cc2)CC1)C1CC1 (stereo not shown) , system Physalospora piricola?
Reply: 6

Task item: Reported inhibition at 50 µg/mL for Physalospora piricola, given O=C(N/C(=C\c1ccccc1)C(=O)N1CCC(O)(c2ccc(Br)cc2)CC1)c1ccc([N+](=O)[O-])cc1 ?
Reply: 7

Task item: State its inhibition at 50 µg/mL on Physalospora piricola: O=C(N/C(=C\c1ccccc1)C(=O)N1CCC(O)(c2ccc(Br)cc2)CC1)C1CCNCC1
Reply: 12

----------
Record form. Attribute: melting point. Fill in for each entry.

Task item: Param item = O=C(N/C(=C\c1cccc(C(F)(F)F)c1)C(=O)N1CCC(O)(c2ccc(Br)cc2)CC1)c1ccccc1 ; retrieve measured melting point.
Reply: 118 to 120 °C

Task item: Bench note: what melting point did O=C(N/C(=C\c1ccccc1)C(=O)N1CCC(O)(c2ccc(Br)cc2)CC1)c1ccc([N+](=O)[O-])cc1 show?
Reply: 130 to 132 °C

Task item: Quick one: melting point for O=C(N/C(=C\c1ccccc1)C(=O)N1CCC(O)(c2ccc(Br)cc2)CC1)c1ccc(C(F)(F)F)cc1 ?
Reply: 130 to 131 °C

Task item: Given the entry O=C(N/C(=C\c1ccccc1)C(=O)N1CCC(O)(c2ccc(Br)cc2)CC1)c1cccs1 , report its measured melting point.
Reply: 134 to 136 °C

Task item: May I ask what melting point has been recorded for O=C(N/C(=C\c1ccccc1)C(=O)N1CCC(O)(c2ccc(Br)cc2)CC1)c1ccc(Cl)cc1 ?
Reply: 193 to 194 °C

Task item: Quick one: melting point for O=C(NCc1ccc(C(F)(F)F)cc1)/C(=C/c1ccccc1)NC(=O)c1ccccc1 ?
Reply: 167 to 168 °C

Task item: Name the recorded melting point for O=C(N/C(=C\c1ccc(C(F)(F)F)cc1)C(=O)N1CCC(O)(c2ccc(Br)cc2)CC1)c1ccccc1 .
Reply: 137 to 139 °C

----------
Please provide measured inhibition at 50 µg/mL for the entries that follow.
Test system: Botrytis cinerea
Assay: Fungicidal activity, fungi growth rate method, BC
Assay type: cell-based
Details: Botrytis cinerea; 50 μg/mL; read-out: Fungicidal activity, inhibition, BC
Answer with a number only, understood to be in %.

Task item: Report inhibition at 50 µg/mL for O=C(N/C(=C\c1ccc(Cl)cc1)C(=O)N1CCC(O)(c2ccc(Br)cc2)CC1)c1ccccc1 please.
Reply: 34

Task item: Which measured inhibition at 50 µg/mL value corresponds to CONC(=O)/C(=C/c1csc(C2CCN(C(=O)OC(C)(C)C)CC2)n1)NC(=O)c1ccccc1 ?
Reply: 53

Task item: Which value of inhibition at 50 µg/mL has been reported for Cc1snnc1/C=C1\N=C(c2ccccc2)OC1=O in the records?
Reply: 26

Task item: Which inhibition at 50 µg/mL is listed for O=C(NCc1ccccc1)/C(=C/c1ccccc1)NC(=O)c1ccccc1 ?
Reply: 16

----------
Could you please report measured melting point for the items listed next?

Task item: Recorded melting point for O=C(N/C(=C\c1ccccc1)C(=O)N1CCC(O)(c2ccc(Br)cc2)CC1)c1ccco1 , please?
Reply: 138 to 140 °C

Task item: Which melting point is listed for O=C(NCc1cccs1)/C(=C/c1ccccc1)NC(=O)c1ccccc1 ?
Reply: 210 to 212 °C

Task item: Query: melting point; subject: CNC(=O)/C(=C/c1ccccc1)NC(=O)c1ccccc1
Reply: 185 to 187 °C

Task item: Name the reported melting point value associated with the molecule O=C(N/C(=C\c1ccccc1)C(=O)N1CCC(O)(c2ccc(Br)cc2)CC1)C1CC1
Reply: 163 to 164 °C

Task item: Which measured melting point value corresponds to O=C(NCc1ccccc1Br)/C(=C/c1ccccc1)NC(=O)c1ccccc1 ?
Reply: 178 to 180 °C

Task item: For the molecule CC(C)(C)OC(=O)N1CCC(c2nc(/C=C(\NC(=O)c3ccccc3)C(=O)NCc3ccc(Br)cc3)cs2)CC1 , what melting point is on record?
Reply: 101 to 103 °C

Task item: Query (molecule): O=C(N/C(=C\c1ccco1)C(=O)N1CCC(O)(c2ccc(Br)cc2)CC1)c1ccccc1 ; field requested: melting point
Reply: 134 to 135 °C

Task item: Need melting point of O=C(NCc1ccc(Br)cc1)/C(=C/c1ccccc1)NC(=O)C1CC1 , thanks.
Reply: 187 to 189 °C

Reference source for all entries: patent US11166460B2
